B1: EDARADD (parent)
chain: VEKVLRRWVDEEWPKRERGDPSRH

- Variants of: B1
- assay-info: protein stability index of a GFP-peptide fusion (GPS, HEK-293T) (PSI 1-6); higher = more stable;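 also: lentivirally expressed fusions sorted by FACS into six bins by GFP to DsRed ratio, PSI derived from sequencing read proportions per bin multiplied by bin number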
- condition-info: c terminus: a fixed tail appended
Reported protein stability index values are given for each entry in this list.
endpoint-label: protein stability index

variant_identifier=S22A result=2.48
variant_identifier=K15H result=3.55
variant_identifier=L5T result=3.98
variant_identifier=S22N result=2.78
variant_identifier=L5Y result=2.34
variant_identifier=V4M result=2.67
variant_identifier=R18A result=2.29
variant_identifier=W13D result=3
variant_identifier=V1S result=2.39
variant_identifier=H24L result=3.12
variant_identifier=K3Y result=2.77
variant_identifier=W8E result=4.22
variant_identifier=D20V result=2.71
variant_identifier=E2Q result=2.51
variant_identifier=E12V result=2.12
variant_identifier=E12M result=2.08
variant_identifier=E2V result=1.63
variant_identifier=E2R result=2.53
variant_identifier=V4P result=3.71
variant_identifier=E2A result=2.61
variant_identifier=R18Q result=3.53
variant_identifier=G19Y result=2.21
variant_identifier=R18Y result=2.44
variant_identifier=V9D result=4.36
variant_identifier=E11D result=3.28
variant_identifier=E11Q result=3.05
variant_identifier=V4N result=4.2
variant_identifier=E2S result=2.46
variant_identifier=V1L result=2.19
variant_identifier=R16L result=2.69
variant_identifier=E17Q result=2.99
variant_identifier=H24K result=3.04
variant_identifier=S22W result=1.84
variant_identifier=P21S result=3.25
variant_identifier=E12D result=2.45
variant_identifier=H24P result=2.37
variant_identifier=H24A result=2.59
variant_identifier=E17Y result=2.55
variant_identifier=V4L result=2.2
variant_identifier=K3V result=2.09
variant_identifier=H24C result=2.13
variant_identifier=R23W result=1.88
variant_identifier=R6A result=3.88
variant_identifier=H24G result=2.71
variant_identifier=D10M result=2.26
variant_identifier=K3N result=3.26

These measurements were taken from the supplement of paper PMC10567573.
